Examples of binders with documented Binding affinity (RU) follow.
- assayed.system: acetylcholine receptor
- test.name: SPR, peptide at 10 uM on immobilized AchR
I only need the number, in RU, no unit after it.

Field Binding affinity (RU) (entry RKHKKK [6mer-2-1080] ) reads 23

The recorded Binding affinity (RU) for entry KYSMRR [6mer-2-1095] equals 39

KPEHRR [6mer-2-1028] yielded Binding affinity (RU) of 41

Binding affinity (RU) measured on RPPMRR [6mer-2-1014] = 34

The binder listed as KMTIKK [6mer-2-1077] shows Binding affinity (RU) equal to 34

The reported Binding affinity (RU) of the binder RYCIRR [6mer-2-1076] was 34

Continuing:
binder RDKGKK [6mer-2-1043] , Binding affinity (RU) observed: 40

Entry KYTERR [6mer-2-1082] ; Binding affinity (RU) = 31

Item: KTPVKK [6mer-2-1027] | Binding affinity (RU): 32

Binding affinity (RU) reported for this binder KEMHKK [6mer-2-1090] : 33

The binder listed as KPDFKR [6mer-2-1055] has a reported Binding affinity (RU) of 30
